# maps each entry to its BK / Km
target: His-tagged BK (butyrate kinase; ToBKIII) (Thermosediminibacter oceani); construct: gene buk; entire gene (about 1,100 bp, about 360 residues) NdeI/HindIII in pET21a(+), E. coli BL21(DE3), Ni column; C-terminal vector His tag; sense primer encodes N-terminus MTFYGILA; antisense primer encodes C-terminus EKPKEYL before HindIII site (KL); assay: coupled ADP-hexokinase/G6PDH NADPH assay; assay type: biochemical; settings: ATP, Mg2+; 0.1 M Tris-HCl pH 7.5; 37°C
Sequence (D9S2G7 1-357): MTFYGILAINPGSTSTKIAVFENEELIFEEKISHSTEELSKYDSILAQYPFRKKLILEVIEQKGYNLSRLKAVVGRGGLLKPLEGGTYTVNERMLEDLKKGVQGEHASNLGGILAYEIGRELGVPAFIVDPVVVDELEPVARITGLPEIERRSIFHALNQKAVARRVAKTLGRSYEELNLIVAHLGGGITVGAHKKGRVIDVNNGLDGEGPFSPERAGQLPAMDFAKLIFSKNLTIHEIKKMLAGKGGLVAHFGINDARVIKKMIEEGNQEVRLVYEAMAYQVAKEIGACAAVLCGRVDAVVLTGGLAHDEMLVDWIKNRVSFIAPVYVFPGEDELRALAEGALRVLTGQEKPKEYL
Just the number please, in mmol, no unit attached.

CCC(=O)O [C3, propionic acid] = 5.1
CCCCCC(=O)O [C6, caproic acid] = 8.7
CC(C)CC(=O)O [IC5, isovaleric acid] = 2.1
CCCCC(=O)O [C5, valeric acid] = 3.3
CCCC(=O)O [C4, butyric acid] = 2.2

We now examine a further compound.
Given CC(C)C(=O)O [IC4, isobutyric acid] , state its recorded BK / Km.
3.2
